biological target: EGFRvIII expressed on cells (F98-npEGFRvIII, NCI-H522-EGFRvIII, U87-KO-EGFRvIII) (human); experiment: flow cytometry, F98-EGFRvIII cells; 2nd Ab only 258
MFI by entry:
No unit in the answer, only the number.

Some solved cases for reference:
29D5 (antibody, V domains shown) VH: QVTLKESGPVLVKPTETLTLTCTVSGFSLSNPRMGVSWLRQPPGKALEWFAHIFSTDEKSYSPSLRGRLTVSKDTSKSQVVLTLTNMDPVDTATYYCARDSSNYEGYFDYWGQGTLVTVSS VL: KIVMTQSPATLSVSPGERATLSCRANQIVSSNLAWYQQKPGQAPRLLVFGTSTRATGIPIRFSGSGSGTEFTLTVSSLQSEDFAVYVCQQYNDWPFTFGPGTKVDIK: 2830
14C11 (antibody, V domains shown) VH: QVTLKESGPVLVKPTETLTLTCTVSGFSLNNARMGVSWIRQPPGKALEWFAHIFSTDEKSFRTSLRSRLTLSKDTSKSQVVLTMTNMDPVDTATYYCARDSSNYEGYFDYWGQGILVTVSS VL: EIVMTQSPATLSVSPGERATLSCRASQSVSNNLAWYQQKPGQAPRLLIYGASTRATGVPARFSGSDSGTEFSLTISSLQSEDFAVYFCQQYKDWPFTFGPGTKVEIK: 3210

Shift focus to the following entry.
Value of MFI reported for the binder 49B11 (antibody, V domains shown) VH: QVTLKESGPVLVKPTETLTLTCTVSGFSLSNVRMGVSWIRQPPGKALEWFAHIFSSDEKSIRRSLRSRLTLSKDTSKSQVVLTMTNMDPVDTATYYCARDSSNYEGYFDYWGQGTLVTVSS VL: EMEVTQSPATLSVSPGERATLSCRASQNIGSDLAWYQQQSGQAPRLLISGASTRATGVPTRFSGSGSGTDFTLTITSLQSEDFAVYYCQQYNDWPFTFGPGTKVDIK is 2980
